The origin of these recorded values is the supplement of paper PMC7801607.

# System: Plasmodium falciparum NF54 asexual blood stage
# measurement_protocol: % inhibition of asexual blood stage proliferation (pLDH); higher = more inhibition
# condition_parameters: 20 µM; 72 h
property: % inhibition of asexual blood stage proliferation
Express your answer as a number followed by its unit.

[[record]]
compound = "COc1ccc(-n2cnc3cc(NCc4ccco4)ccc32)cc1"
reported_value = "44.9%"


The measured % inhibition of asexual blood stage proliferation associated with CC(C)Nc1nc2cc(Cl)c(Cl)cc2n1[C@H]1O[C@@H](CO)[C@H](O)[C@@H]1O reads 55.9%

The measured % inhibition of asexual blood stage proliferation associated with Cc1nc(N(C)C(=O)Cc2ccc(-c3ccccn3)cc2)sc1S(N)(=O)=O reads -31.8%

The measured % inhibition of asexual blood stage proliferation associated with CC(C)(C)c1cc(CCC(=O)N2CCC2)cc(C(C)(C)C)c1O reads 69.6%

The measured % inhibition of asexual blood stage proliferation associated with CCc1cc(O)c(Oc2cccnc2N)cc1F reads 20.8%
